Sourced from paper PMC7588913

- System: LLC-MK2 cells
- Assay type: cell-based, Rhesus monkey
- Recorded Conditions: 100 µM
Where a SMILES comes first, the peptide text is derived from it.
Overview of reported Cell Viability (%) across a group of molecules:
// note: answer is a bare numeric in %

Solved entries:
{"Molecule": "CC(C)C[C@H](NC(=O)CNC(=O)[C@H](CC(C)C)NC(=O)[C@H](C)NC(=O)[C@H](C)NC(=O)[C@H](CCC(N)=O)NC(=O)[C@H](CO)NC(=O)[C@H](C)NC(=O)[C@H](C)NC(=O)[C@@H](NC(=O)[C@H](CC(C)C)NC(=O)[C@H](CCCCN)NC(=O)[C@@H](N)CCCCN)C(C)C)C(=O)O [Peptide K13L] (H-KKLVAASQAALGL-OH)", "System Name": "LLC-MK2 cells", "Unit Info": "%", "Cell Viability (%)": 101.26}
{"Molecule": "CC[C@H](C)[C@H](NC(=O)[C@H](CCCCN)NC(=O)[C@H](CO)NC(=O)CNC(=O)[C@H](CC(C)C)NC(=O)[C@H](CO)NC(=O)[C@H](Cc1ccccc1)NC(=O)[C@H](CCC(N)=O)NC(=O)[C@H](CC(C)C)NC(=O)[C@H](CCC(=O)O)NC(=O)[C@H](CCC(=O)O)NC(=O)[C@H](CCC(=O)O)NC(=O)[C@H](CC(C)C)NC(=O)CN)C(=O)N[C@@H](CC(N)=O)C(=O)N[C@H](C(=O)N[C@@H](CCCCN)C(=O)O)C(C)C [Peptide G17K] (H-GLEEELQFSLGSKINVK-OH)", "System Name": "LLC-MK2 cells", "Unit Info": "%", "Cell Viability (%)": 99.07}

Recorded Cell Viability (%) for CC(C)[C@H](NC(=O)[C@@H](NC(=O)[C@H](Cc1ccccc1)NC(=O)CNC(=O)[C@H](CCC(=O)O)NC(=O)[C@H](CC(N)=O)NC(=O)[C@H](CCC(=O)O)NC(=O)[C@H](CCCCN)NC(=O)[C@@H](NC(=O)[C@H](CCC(=O)O)NC(=O)[C@H](CCC(=O)O)NC(=O)[C@@H](N)CO)[C@@H](C)O)[C@@H](C)O)C(=O)N[C@H](C(=O)N[C@@H](C)C(=O)N[C@@H](CCC(=O)O)C(=O)NCC(=O)N[C@@H](CCCCN)C(=O)O)[C@@H](C)O [Peptide S17K] (H-SEETKENEGFTVTAEGK-OH; N-terminus and C-terminus assumed) with LLC-MK2 cells, please?
101.73

Given the entry C[C@H](NC(=O)[C@H](CCC(=O)O)NC(=O)[C@H](CO)NC(=O)CNC(=O)[C@H](C)NC(=O)[C@H](CCC(=O)O)NC(=O)[C@@H](N)CC(=O)O)C(=O)N[C@@H](CC(=O)O)C(=O)N[C@@H](Cc1c[nH]cn1)C(=O)N[C@@H](CCC(=O)O)C(=O)NCC(=O)N[C@H](C(=O)N[C@@H](Cc1c[nH]cn1)C(=O)N[C@@H](CO)C(=O)N[C@H](C(=O)O)[C@@H](C)O)[C@@H](C)O [Peptide D15T] (H-DEAGSEADHEGTHST-OH; N-terminus and C-terminus assumed) , what Cell Viability (%) was observed with LLC-MK2 cells?
108.50

Observed Cell Viability (%) on LLC-MK2 cells for CC(C)C[C@H](NC(=O)[C@H](Cc1ccccc1)NC(=O)[C@H](CC(=O)O)NC(=O)CNC(=O)[C@H](CCC(=O)O)NC(=O)CNC(=O)[C@H](CO)NC(=O)[C@@H](N)CC(=O)O)C(=O)N[C@@H](C)C(=O)N[C@@H](CCC(=O)O)C(=O)NCC(=O)NCC(=O)NCC(=O)N[C@H](C(=O)N[C@@H](CCCNC(=N)N)C(=O)O)C(C)C [Peptide D15R] (H-DSGEGDFLAEGGGVR-OH; N-terminus and C-terminus assumed) , please.
103.00
